- protocol text: yeast display, Sf9 membrane polyspecificity reagent, FACS + sequencing; frameworks hold sequencing errors
metric: polyreactivity (PSR sort gate)

INSERT INTO measurements (seq_string, observed_value) VALUES
  ('QVQLVESGGGLVQAGGSLRLSCAASGSIISRTVMGWYRQAPGKEREFVATISRSGGITYYADSVKGRFTISRDNAKNTVYLQMNSLKPEDTAVYYCAAGKFVSFPSHYGYWGQGTQVTVSS', 'high polyreactivity'),
  ('QVHLVESGGGLVQAGGSLRLSCPASGRIFRVYAMGWYRQEPGKERELVAAISYSGGRTFYADSVKGRFTISRDNAKNTVYFQMNSLKPEDTAVYYGAAKSYYTQALPPFDYWGQGTQVTVSS', 'low polyreactivity'),
  ('QVQLEESGRGLVPAGGSLRLSCAASGFTFDYNTMGWYRQAPGKERELVAAISFRGTSTYYADSVKGRFTISRDNAKNTVYLQMNSLKREDTAVYYCATRDYHVPGRFYYWGQGTQVTVSS', 'high polyreactivity'),
  ('QVQLVESGGGLVQAGGSLRLSCAASGSTIGRYAMGWYRQAPGKERELVAAISSSGDRTYYADSVKGRFTISRDNAKNTVYLQMNSLKPEDTAVYYCNSRRLFSGYDYWGQGTQVTVSS', 'high polyreactivity'),
  ('QVQLVESGGGLVQAGGSLRLSCAASGLTFQNNARGWYRQAPGKERELVAAISDGGSTYYADSVKGRFTISRDNAKNTVYLQMNSLKPEDTGVYYCNADYGGWDYLYTSDQDNEYGYWGQGTQVTVSS', 'low polyreactivity');
